test: NCI Yeast Anticancer Drug Screen. Data for the cln2 rad14 strain (AID 165);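 further: 0% = growth equal to vehicle treated cultures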
run_parameters: S. cerevisiae cln2 rad14 strain, at 50.0 µM, stronger effect = higher value
The panel holds about 79,000 compounds, 15% with a hit somewhere; the sample as a whole holds those more often.
experimental_endpoint: growth inhibition (%)

| molecule | unit_abbrev | observed_value |
| --- | --- | --- |
| C=C(Br)C[N+](CC)(CC)CC | % | 15.8 |
| COc1cc(/C=C/Cc2cc3c(cc2OCCO)OCO3)cc(OC)c1OC | % | -11.7 |
| NC(=O)N/N=C1\CCc2ccccc2C1 | % | 22.4 |
| O=C(CSC1=NCCN1)c1ccccc1 | % | -57.9 |
| NC1=NN(c2ccccc2)C(=O)/C1=C\n1c(=S)[nH]c2ccccc21 | % | -16.3 |
| CCCCCCCCOC(=O)c1cc([N+](=O)[O-])c(Sc2ncnc3nc[nH]c23)c([N+](=O)[O-])c1 | % | 11.8 |
| N#Cc1sc2c(c1O)c(=O)n(-c1ccccc1)c(=S)n2-c1ccccc1 | % | -23.1 |
| Nc1ccccc1C(=O)Nc1ccc(Cl)cc1C(=O)O | % | -14.8 |
| CC(O)CN(CC(C)O)c1ccc2c(c1)Cc1ccccc1-2 (centres undefined) | % | -20.8 |
| O=c1ccc2cc3c(cc2[nH]1)OCO3 | % | -39.5 |
| CCCc1cc2c3c(c(=O)oc2cc1O)CCCCC3 | % | -22.5 |
| O=C(OCc1ccccc1)C1CC1 (tested in a mixture with another compound) | % | 6.1 |
| CSc1cc(/C=C/c2ccccc2)ccc1N | % | -33.5 |
| Cc1ccc(NC(=O)CSc2nnc(Cc3ccccc3)o2)c(C)c1 | % | -22.8 |
| C=CCC12CC(O)C(O)CC1(OC)OC(c1cc(OC)c(OC)c(OC)c1)C2C (centres undefined) | % | -4.75 |
| O=C(O)c1ccccc1SC(Sc1ccccc1C(=O)O)c1ccccc1 | % | -7.85 |
| Cc1cccn(C(=O)c2ccccc2)c1=N | % | -41.7 |
| CC(=O)OCCN(C)C | % | 8.5 |
| CC(C)(C)N/N=C(\C(=O)Nc1cccc(Cl)c1)C1C(=O)Nc2ccccc2S1=O (centres undefined) | % | 10.7 |
| N#CC(C#N)=NO (tested in a mixture with another compound) | % | -0.75 |
| COc1cc2c(c(OC)c1OC)-c1cccc(=O)cc1C(NC(C)=O)CC2 (centres undefined) | % | 8.9 |
| CC(=O)Oc1ccc(C2(OC(C)=O)c3ccccc3C(=O)c3ccccc32)cc1 | % | 34.1 |
| CCCCCCC(=O)N1CC(C)OC(C)C1 (centres undefined) | % | 0.1 |
| O=c1cc(-c2ccccc2)oc2c(N=Nc3ccccc3)ccc(O)c12 | % | 25.4 |
